Molecular target: recombinant homotrimeric HA A/Indonesia/5/05 H5N1 (Influenza A virus A/Indonesia/5/2005(H5N1))
Assay: protein microarray, purified IgG, trimeric HA
Conditions: remark: other sources report otherwise
Trimeric HA Binding: RLU less than 20000 RLU is label 1; Trimeric HA Binding: RLU greater than or equal to 20000 RLU is label 0.

q: Given TCN-553 (5261_C18) (antibody, V domains shown) VH: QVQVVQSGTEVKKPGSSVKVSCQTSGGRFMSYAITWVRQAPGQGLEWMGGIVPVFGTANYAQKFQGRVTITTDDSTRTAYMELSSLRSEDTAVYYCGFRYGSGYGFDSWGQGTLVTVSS VL: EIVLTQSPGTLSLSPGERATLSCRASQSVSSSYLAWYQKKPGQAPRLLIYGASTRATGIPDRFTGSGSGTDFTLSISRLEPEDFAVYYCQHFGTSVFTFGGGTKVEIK , is recorded Trimeric HA Binding: RLU strictly lower than 20000 RLU?
a: label 0

q: Given TCN-535 (5246_P19) (antibody, V domains shown) VH: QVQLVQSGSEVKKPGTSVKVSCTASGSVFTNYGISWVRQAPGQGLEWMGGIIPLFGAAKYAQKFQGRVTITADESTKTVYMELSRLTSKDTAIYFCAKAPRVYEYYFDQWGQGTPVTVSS VL: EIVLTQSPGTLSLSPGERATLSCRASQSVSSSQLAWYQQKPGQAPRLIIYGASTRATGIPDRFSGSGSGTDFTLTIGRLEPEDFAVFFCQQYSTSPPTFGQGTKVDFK , is recorded Trimeric HA Binding: RLU strictly lower than 20000 RLU?
a: label 1

q: Given TCN-542 (5079_A16) (antibody, V domains shown) VH: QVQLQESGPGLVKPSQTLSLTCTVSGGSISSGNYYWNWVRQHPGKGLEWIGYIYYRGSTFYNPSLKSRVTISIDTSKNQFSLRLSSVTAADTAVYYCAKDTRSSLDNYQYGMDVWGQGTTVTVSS VL: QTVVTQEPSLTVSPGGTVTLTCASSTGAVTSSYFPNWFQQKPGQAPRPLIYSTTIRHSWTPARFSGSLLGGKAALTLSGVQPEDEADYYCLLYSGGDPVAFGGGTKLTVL , is recorded Trimeric HA Binding: RLU strictly lower than 20000 RLU?
a: label 1

q: Given TCN-531 (5091_H13) (antibody, V domains shown) VH: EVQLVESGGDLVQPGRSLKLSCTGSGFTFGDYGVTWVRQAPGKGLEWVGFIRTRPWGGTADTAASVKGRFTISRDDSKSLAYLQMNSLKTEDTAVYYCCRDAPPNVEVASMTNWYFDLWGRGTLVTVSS VL: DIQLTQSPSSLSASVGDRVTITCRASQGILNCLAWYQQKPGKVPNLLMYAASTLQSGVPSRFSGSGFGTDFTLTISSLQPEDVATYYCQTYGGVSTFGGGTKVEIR , is recorded Trimeric HA Binding: RLU strictly lower than 20000 RLU?
a: label 1

q: Given TCN-555 (5246_L16) (antibody, V domains shown) VH: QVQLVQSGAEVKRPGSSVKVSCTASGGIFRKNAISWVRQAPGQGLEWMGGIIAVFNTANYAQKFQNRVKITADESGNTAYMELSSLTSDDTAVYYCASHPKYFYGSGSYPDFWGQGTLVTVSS VL: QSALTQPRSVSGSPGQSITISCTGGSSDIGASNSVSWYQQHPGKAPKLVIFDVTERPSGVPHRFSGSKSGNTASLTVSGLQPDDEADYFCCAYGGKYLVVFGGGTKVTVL , is recorded Trimeric HA Binding: RLU strictly lower than 20000 RLU?
a: label 1

From: patent US20150086555A1
